Data origin, for the record: patent US20260184782A1

Target: T1, human TIGIT-Fc (human, UniProt Q495A1 22-141, limits assumed)
T1 construct: not shown: Fc; not described
T1 sequence (looked up): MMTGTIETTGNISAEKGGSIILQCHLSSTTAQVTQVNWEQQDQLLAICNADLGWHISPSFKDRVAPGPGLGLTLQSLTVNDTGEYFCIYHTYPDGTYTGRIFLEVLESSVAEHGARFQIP
Experiment: CD155 competition ELISA, single point; further: test concentration or dose not given here
Reported OD (450 nm) values are given for each entry in this list.
Answer in OD, number only, no unit symbol.

Take a look at these entries with their results.
binder="TIGIT-SC162 (Fc fusion, VHH-Fc) VHH: EVQLVESGGGLVQPGGSLRLSCAASGNTFSGGFMGWFRQAPGKEREWVASVLRGGYTWYADSVKGRFTISADNSKNTAYLQMNSLKPEDTAVYYCTTDRAIGVRPLFDHWGQGTLVTVSS" assay_value=0.423
binder="TIGIT-SC149 (Fc fusion, VHH-Fc) VHH: EVQLVESGGGLVQPGGSLRLSCAASGFTLENNMMGWFRQAPGKEREFVAAISRSGTLKAYADSVKGRFTISADNSKNTAYLQMNSLKPEDTAVYYCAKVQGPYCSGGSCYLYTFDLWGQGTLVTVSS" assay_value=0.263
binder="TIGIT-SC104 (Fc fusion, VHH-Fc) VHH: EVQLVESGGGLVQPGGSLRLSCAASGFTFSTYTMGWFRQAPGKEREFVAAISPSGNTYYADSVKGRFTISADNSKNTAYLQMNSLKPEDTAVYYCARWGGITFGGVYPLDYWGQGTLVTVSS" assay_value=0.701

Now for the binder whose OD (450 nm) we want.
[ask] Supply reported OD (450 nm) belonging to this binder: TIGIT-SC18 (Fc fusion, VHH-Fc) VHH: EVQLVESGGGLVQPGGSLRLSCAASGFSLDYYAMGWFRQAPGKEREVVAIIDTNGDNTLYADSVKGRFTISADNSKNTAYLQMNSLKPEDTAVYYCARGRGYGDYVGAYWGQGTLVTVSS
[reply] 0.716
